This collection of values is drawn from PubChem BioAssay (NCATS).

test: Quantitative High-Throughput drug screen in 47 multiple myeloma cell lines against the NCATS MIPE library collection: EJM_DSMZ cell viability assay (AID 1918926; also: nearly all actives have a fitted effect of over 30% in size); conditions: EJM myeloma cell viability, CellTiter-Glo ATP, 48 h; series mostly up to 45.8 µM
Inconclusive results are not listed. Calls of active or inactive are those of the source. Calls follow the shape of the dose curve; as a rule, active = well fitted cell-killing curve with a large enough effect; inconclusive = small, poorly fitted or top-dose-only effect, or effect the other way; inactive = no such curve, though single readings can be large or run the other way.
Classes used: active, inactive

{"columns": ["molecule", "category"],
 "data": [
  ["C=CCc1ccc(O)c(-c2ccc(O)c(CC=C)c2)c1", "active"],
  ["CC1(C)O[C@H]2C[C@@H]3[C@H]4CCC5=CC(=O)C=C[C@]5(C)[C@@]4(F)[C@@H](O)C[C@]3(C)[C@]2(C(=O)CO)O1", "inactive"],
  ["CCC(CC)[C@H](NC(C)=O)[C@@H]1[C@H](O)[C@@H](C(=O)O)C[C@@H]1N=C(N)N", "inactive"],
  ["COc1ccc(-c2cc(=O)c3c(O)cc(O)cc3o2)cc1O", "active"],
  ["O=C1c2ccccc2-[n+]2ccc3c([nH]c4ccccc43)c21", "active"],
  ["NC[C@@H]1O[C@@H](O[C@H]2[C@@H](O)[C@H](O[C@@H]3[C@@H](O)[C@@H](N)C[C@H](N)[C@H]3O[C@H]3O[C@H](CN)[C@@H](O)[C@@H](O)[C@H]3N)O[C@H]2CO)[C@H](N)[C@@H](O)[C@@H]1O", "inactive"],
  ["CN(C)C1CCN(C(=O)c2ccc(NC(=O)Nc3nc(N4CCOCC4)nc(N4CCOCC4)n3)cc2)CC1", "active"],
  ["CCn1cc(C(=O)O)c(=O)c2ccc(C)nc21", "inactive"],
  ["CN1C[C@H]2c3ccccc3Oc3ccc(Cl)cc3[C@@H]2C1", "inactive"],
  ["O=C(Nc1cc(Cl)cc2c1[nH]c1cnccc12)c1cccnc1", "active"],
  ["Cc1ccc(C(=O)Nc2cccc(C(F)(F)F)c2)cc1Nc1nc(-c2cccnc2)nc2c1cnn2C", "active"],
  ["CC=CC[C@@H](C)C(=O)[C@H]1C(=O)N[C@@H](C(C)C)C(=O)N(C)CC(=O)N(C)[C@@H](CC(C)C)C(=O)N[C@@H](C(C)C)C(=O)N(C)[C@@H](CC(C)C)C(=O)N[C@@H](C)C(=O)N[C@H](C)C(=O)N(C)[C@@H](CC(C)C)C(=O)N(C)[C@@H](CC(C)C)C(=O)N(C)[C@@H](C(C)C)C(=O)N1C", "inactive"],
  ["CC(C(=O)O)c1ccc(-c2ccccc2)c(F)c1 (stereo not given)", "active"],
  ["CCCCCN(C)CCC(O)(P(=O)(O)O)P(=O)(O)O", "inactive"],
  ["CCOC1OC(=O)C[C@H]1NC(=O)[C@@H]1CCCN1C(=O)[C@@H](NC(=O)c1ccc(N)c(Cl)c1)C(C)(C)C (stereo not given in full)", "inactive"]
]}
